# PROTOCOL DESCRIPTION: MTT cell proliferation assay, melanoblasts
# Type: cell-based, human
# RECORDED CONDITIONS: human, 500 μM, MTT, 72 h, read-out: melanoblast proliferation rate after 72 hours
Peptide text beside a SMILES is read from it.
VALUE KIND: viability at 72 h, 500 µM (%)
I only need the number, in %, no unit after it.

CCCCCCCCCCCCCCCC(=O)N[C@@H](Cc1ccc(O)cc1)C(=O)N[C@@H](CCCNC(=N)N)C(=O)N[C@@H](CO)C(=O)N[C@@H](CCCNC(=N)N)C(=O)N[C@@H](CCCCN)C(=O)N[C@H](Cc1ccc(O)cc1)C(=O)N[C@@H](CO)C(=O)N[C@@H](CO)C(=O)N[C@@H](Cc1c[nH]c2ccccc12)C(=O)N[C@@H](Cc1ccc(O)cc1)C(N)=O [P4B, Palmitoyl-YRSRK[*Y]SSWY-amide] (HELM PEPTIDE1{[CCCCCCCCCCCCCCCC(=O)[*:2]].Y.R.S.R.K.[dY].S.S.W.Y.[am]}$$$$V2.0); 95

Kindly review the next molecule as well.
Note to self: viability at 72 h, 500 µM recorded for CCCCCCCCCCCCCCCC(=O)N[C@@H](Cc1ccc(O)cc1)C(=O)N[C@@H](CCCNC(=N)N)C(=O)N[C@@H](CO)C(=O)N[C@@H](CCCNC(=N)N)C(=O)N[C@@H](CCCCN)C(=O)N[C@@H](Cc1ccc(O)cc1)C(=O)N[C@@H](CO)C(=O)N[C@@H](CO)C(=O)N[C@@H](Cc1c[nH]c2ccccc12)C(=O)N[C@@H](Cc1ccc(O)cc1)C(N)=O [P4A, Palmitoyl-YRSRKYSSWY-amide] (HELM PEPTIDE1{[CCCCCCCCCCCCCCCC(=O)[*:2]].Y.R.S.R.K.Y.S.S.W.Y.[am]}$$$$V2.0) was 96

====

# PROTOCOL DESCRIPTION: MTT cell proliferation assay, melanoblasts
# Assay type: cell-based, human
# RECORDED CONDITIONS: human, 100 μM, MTT, 72 h, read-out: melanoblast proliferation rate after 72 hours
Ends that are not written are not given here.
VALUE KIND: viability at 72 h, 100 µM (%)
I only need the number, in %, no unit after it.

YRSRKYSSWY [decapeptide-12, YRSRKYSSWY]; 97

Kindly review the next substance as well.
Note to self: viability at 72 h, 100 µM recorded for Ac-YRSRKYSSWY-NH2 [P4C, Acetyl-YRSRKYSSWY-amide] was 97

====

# PROTOCOL DESCRIPTION: Trypan blue cell viability, 7 days, fibroblasts
# Assay type: cell-based
# RECORDED CONDITIONS: human, 500 μM, relative to control, read-out: fibroblast viability after 7 days
Ends that are not written are not given here.
VALUE KIND: viability at 168 h, 500 µM (%)
I only need the number, in %, no unit after it.

Note to self: viability at 168 h, 500 µM recorded for YRSRKYSSWY [decapeptide-12, YRSRKYSSWY] was 94.5

Note to self: viability at 168 h, 500 µM recorded for Ac-YRSRKYSSWY-NH2 [P4C, Acetyl-YRSRKYSSWY-amide] was 95.7

====

# PROTOCOL DESCRIPTION: Trypan blue cell viability, 7 days, epidermal progenitors
# Type: cell-based
# RECORDED CONDITIONS: human, 50 μM, relative to control, read-out: epidermal progenitor viability after 7 days
Peptide text beside a SMILES is read from it.
VALUE KIND: viability at 168 h, 50 µM (%)
I only need the number, in %, no unit after it.

CCCCCCCCCCCCCCCC(=O)N[C@@H](Cc1ccc(O)cc1)C(=O)N[C@@H](CCCNC(=N)N)C(=O)N[C@@H](CO)C(=O)N[C@@H](CCCNC(=N)N)C(=O)N[C@@H](CCCCN)C(=O)N[C@H](Cc1ccc(O)cc1)C(=O)N[C@@H](CO)C(=O)N[C@@H](CO)C(=O)N[C@@H](Cc1c[nH]c2ccccc12)C(=O)N[C@@H](Cc1ccc(O)cc1)C(N)=O [P4B, Palmitoyl-YRSRK[*Y]SSWY-amide] (HELM PEPTIDE1{[CCCCCCCCCCCCCCCC(=O)[*:2]].Y.R.S.R.K.[dY].S.S.W.Y.[am]}$$$$V2.0); 98

Kindly review the next molecule as well.
Note to self: viability at 168 h, 50 µM recorded for CCCCCCCCCCCCCCCC(=O)N[C@@H](Cc1ccc(O)cc1)C(=O)N[C@@H](CCCNC(=N)N)C(=O)N[C@@H](CO)C(=O)N[C@@H](CCCNC(=N)N)C(=O)N[C@@H](CCCCN)C(=O)N[C@@H](Cc1ccc(O)cc1)C(=O)N[C@@H](CO)C(=O)N[C@@H](CO)C(=O)N[C@@H](Cc1c[nH]c2ccccc12)C(=O)N[C@@H](Cc1ccc(O)cc1)C(N)=O [P4A, Palmitoyl-YRSRKYSSWY-amide] (HELM PEPTIDE1{[CCCCCCCCCCCCCCCC(=O)[*:2]].Y.R.S.R.K.Y.S.S.W.Y.[am]}$$$$V2.0) was 97.5

====

# PROTOCOL DESCRIPTION: MTT cell proliferation assay, fibroblasts
# Format: cell-based, human
# RECORDED CONDITIONS: human, 100 μM, MTT, 72 h, read-out: fibroblast proliferation rate after 72 hours
Ends that are not written are not given here.
VALUE KIND: viability at 72 h, 100 µM

Ac-YRSRKYSSWY-NH2 [P4C, Acetyl-YRSRKYSSWY-amide]; 98%

Note to self: viability at 72 h, 100 µM recorded for YRSRKYSSWY [decapeptide-12, YRSRKYSSWY] was 97%

====

# PROTOCOL DESCRIPTION: Trypan blue cell viability, 7 days, fibroblasts
# Assay type: cell-based
# RECORDED CONDITIONS: human, 500 μM, relative to control, read-out: fibroblast viability after 7 days
Peptide text beside a SMILES is read from it.
VALUE KIND: viability at 168 h, 500 µM (%)
I only need the number, in %, no unit after it.

CCCCCCCCCCCCCCCC(=O)N[C@@H](Cc1ccc(O)cc1)C(=O)N[C@@H](CCCNC(=N)N)C(=O)N[C@@H](CO)C(=O)N[C@@H](CCCNC(=N)N)C(=O)N[C@@H](CCCCN)C(=O)N[C@@H](Cc1ccc(O)cc1)C(=O)N[C@@H](CO)C(=O)N[C@@H](CO)C(=O)N[C@@H](Cc1c[nH]c2ccccc12)C(=O)N[C@@H](Cc1ccc(O)cc1)C(N)=O [P4A, Palmitoyl-YRSRKYSSWY-amide] (HELM PEPTIDE1{[CCCCCCCCCCCCCCCC(=O)[*:2]].Y.R.S.R.K.Y.S.S.W.Y.[am]}$$$$V2.0); 95.5

Kindly review the next molecule as well.
Note to self: viability at 168 h, 500 µM recorded for CCCCCCCCCCCCCCCC(=O)N[C@@H](Cc1ccc(O)cc1)C(=O)N[C@@H](CCCNC(=N)N)C(=O)N[C@@H](CO)C(=O)N[C@@H](CCCNC(=N)N)C(=O)N[C@@H](CCCCN)C(=O)N[C@H](Cc1ccc(O)cc1)C(=O)N[C@@H](CO)C(=O)N[C@@H](CO)C(=O)N[C@@H](Cc1c[nH]c2ccccc12)C(=O)N[C@@H](Cc1ccc(O)cc1)C(N)=O [P4B, Palmitoyl-YRSRK[*Y]SSWY-amide] (HELM PEPTIDE1{[CCCCCCCCCCCCCCCC(=O)[*:2]].Y.R.S.R.K.[dY].S.S.W.Y.[am]}$$$$V2.0) was 95.3

====

# PROTOCOL DESCRIPTION: Trypan blue cell viability, 7 days, melanoblasts
# Type: cell-based
# RECORDED CONDITIONS: human, 500 μM, relative to control, read-out: melanoblast viability after 7 days
# Procedure: The effect of each of the decapeptides upon cell viability was also tested. In particular, cells were incubated with the decapeptide at various concentrations and then counted for viability relative to the control (untreated cells) using trypan blue. Cytotoxicity was measured according to the following formula: [1−(# of cells in control−# of live cells in test sample)/# of cells in control]×100 percent.
Ends that are not written are not given here.
VALUE KIND: viability at 168 h, 500 µM (%)
I only need the number, in %, no unit after it.

Ac-YRSRKYSSWY-NH2 [P4C, Acetyl-YRSRKYSSWY-amide]; 95.5

Kindly review the next substance as well.
Note to self: viability at 168 h, 500 µM recorded for YRSRKYSSWY [decapeptide-12, YRSRKYSSWY] was 94.6

====

# PROTOCOL DESCRIPTION: MTT cell proliferation assay, fibroblasts
# Format: cell-based, human
# RECORDED CONDITIONS: human, 50 μM, MTT, 72 h, read-out: fibroblast proliferation rate after 72 hours
Ends that are not written are not given here.
substances and their reported viability at 72 h, 50 µM
I only need the number, in %, no unit after it.

Ac-YRSRKYSSWY-NH2 [P4C, Acetyl-YRSRKYSSWY-amide]; 99

Kindly review the next substance as well.
Note to self: viability at 72 h, 50 µM recorded for YRSRKYSSWY [decapeptide-12, YRSRKYSSWY] was 98
